System: HepG2
procedure.text: Antitumor activity human HepG2 cells assessed as inhibition of cell proliferation incubated for 72 hrs by MTT assay
Assay type: functional, cell-based
condition.context: HepG2, 72 h
assay.metric: pIC50
Just so you know, pIC50 here is -log10 of the concentration in molar units; reply with that number alone.

CCSc1nc(Nc2cccc(OC)c2)c2ccncc2n1 :: 4.97

Prompt line: I would be grateful if you could share the reported pIC50 for `C#CCSc1nc(Nc2ccc(F)cc2)c2ccncc2n1` .
Response line: 4.97

Prompt line: I would be grateful if you could share the reported pIC50 for `C#CCSc1nc(Nc2cc(OC)c(OC)c(OC)c2)c2ccncc2n1` .
Response line: 4.85

Prompt line: I would be grateful if you could share the reported pIC50 for `C#CCSc1nc(Nc2ccc(Cl)cc2Cl)c2ccncc2n1` .
Response line: 4.96

* * *

Each record here notes measured IC50.
Test system: HepG2
procedure.text: Antitumor activity human HepG2 cells assessed as inhibition of cell proliferation incubated for 72 hrs by MTT assay
Format: functional, cell-based
condition.context: HepG2, 72 h
// note: answer is a bare numeric in µM

C#CCSc1nc(Nc2cccc(OC)c2)c2ccncc2n1 :: 0.92

Prompt line: I would be grateful if you could share the reported IC50 for `COc1cccc(Nc2nc(SCC3CCCCC3)nc3cnccc23)c1` .
Response line: 32.8

Prompt line: I would be grateful if you could share the reported IC50 for `CCCSc1nc(Nc2cccc(OC)c2)c2ccncc2n1` .
Response line: 17.3

Prompt line: I would be grateful if you could share the reported IC50 for `C#CCSc1nc(Nc2ccc(Cl)cc2)c2ccncc2n1` .
Response line: 36.7

Prompt line: I would be grateful if you could share the reported IC50 for `COc1cccc(Nc2nc(SCC3CC3)nc3cnccc23)c1` .
Response line: 24.9

Prompt line: I would be grateful if you could share the reported IC50 for `C#CCSc1nc(Nc2cccc(Cl)c2)c2ccncc2n1` .
Response line: 1.09
